Values were extracted from patent US20180282402A1.

# system name: Cyno HARS (cynomolgus monkey (Macaca fascicularis))
# assay notes: SPR (ProteOn); HRS protein immobilized, antibody as analyte
metric name: pKd
Units for pKd: none; it is -log10 of a concentration expressed in mol/L.

binder AB13-433 (antibody, V domains shown) VH: QVQLVESGGGLVKPGGSLRLSCAASGFTFSDYYMSWIRQAPGKGLEWVSYISDSSTYTNYTDSVRGRFTISRDNAKNSLYLQMNSLRAEDTAVYYCARYLYQVIAVADSWGQGTLVTVSS VL: DIQMTQSPSSVSASVGDRVTITCRASQGISSWLAWFQQKPGKAPKLLIYVASNLESGVPSRFSGSGSGTDFTLTISSLQPEDFATYYCQQANSFPYTFGQGTKLEIK , pKd observed: 9.62

binder AB04-439 (antibody, V domains shown) VH: QVQLVESGGGLVKPGGSLRLSCAASGFTFSDYYMTWIRQAPGKGLEWVSYISGSFRYTNYADSVKGRFTISRDNAKNSLYLQMNSLRDEDTAVYFCARYVYQVVAIGDLWGQGTLVTVSS VL: DIQMTQSPSSVSASVGDRVTITCRASQGISSWLAWYQQKPGRAPKLLIFAASSLQSGVPSRFSGSGSGTHFTLTISSLQPEDFATYYCQQAESFPYTFGQGTKLEIK , pKd observed: 10.12

Next:
binder AB13-288 (IgG1m(zf) kappa) (antibody, V domains shown) VH: QVQLVESGGGLVKPGGSLRLSCAASGFTFSDYYMSWIRQAPGKGLEWVSYISDKSRYTKYTDKVRGRFTISRDNAKNSLYLQMNSLRAEDTAVYYCARYLYQVIAIADAWGQGTLVTVSS VL: DIQMTQSPSSVSASVGDRVTITCRASQGISSWLAWFQQKPGKAPKLLIFVASNLESGVPSRFSGSGSGTDFTLTISSLQPEDFATYYCQQAESFPYTFGQGTKLEIK , pKd observed: 11.70
